Origin of the recorded values: ChEMBL document CHEMBL1152538

Tested on: Enterococcus faecalis
Assay: Antibacterial activity against Enterococcus faecalis 1131 after 24 to 96 hrs by well microplate assay
Assay type: functional
Where a SMILES comes first, the peptide text is derived from it. [ ]: non-standard residue; d: D form. The star is where a group is joined. Diphenylacetyl = O=C(C(c1ccccc1)c1ccccc1)*; Phe(4-NH2) = Nc1ccc(C[C@H](N)C(=O)O)cc1; Orn = NCCC[C@H](N)C(=O)O; Piv = CC(C)(C)C(=O)*; Propionyl = CCC(=O)*
RECORDED ENDPOINT: MIC (µg/mL)

>>> endpoint_value("CCC(=O)Nc1ccc(C[C@@H]2NC(=O)[C@H](CC(C)C)NC(=O)[C@H](CCCN)NC(=O)[C@H](C(C)C)NC(=O)[C@@H]3CCCN3C(=O)[C@H](Cc3ccccc3)NC(=O)[C@H](CC(C)C)NC(=O)[C@H](CCCN)NC(=O)[C@H](C(C)C)NC(=O)[C@@H]3CCCN3C2=O)cc1 (cyclo(FPV[Orn]L[Phe(4-NH2)](Propionyl)PV[Orn]L))")
32
>>> endpoint_value("CC(C)C[C@@H]1NC(=O)[C@H](CCCN)NC(=O)[C@H](C(C)C)NC(=O)[C@@H]2CCCN2C(=O)[C@H](Cc2ccccc2)NC(=O)[C@H](CC(C)C)NC(=O)[C@H](CCCN)NC(=O)[C@H](C(C)C)NC(=O)[C@@H]2CCCN2C(=O)[C@H](Cc2ccc(NC(=O)C(c3ccccc3)c3ccccc3)cc2)NC1=O (cyclo(FPV[Orn]L[Phe(4-NH2)](Diphenylacetyl)PV[Orn]L))")
16
>>> endpoint_value("CC(C)C[C@@H]1NC(=O)[C@H](CCCN)NC(=O)[C@H](C(C)C)NC(=O)[C@@H]2CCCN2C(=O)[C@H](Cc2ccccc2)NC(=O)[C@H](CC(C)C)NC(=O)[C@H](CCCN)NC(=O)[C@H](C(C)C)NC(=O)[C@@H]2CCCN2C(=O)[C@H](Cc2ccc(NC(=O)C(C)(C)C)cc2)NC1=O (cyclo(FPV[Orn]L[Phe(4-NH2)](Piv)PV[Orn]L))")
16
